Assay System: NK1 receptor (Cavia porcellus)
Construct: from tissue; host or cells: isolated guinea pig ileum
Sequence (P30547 whole entry): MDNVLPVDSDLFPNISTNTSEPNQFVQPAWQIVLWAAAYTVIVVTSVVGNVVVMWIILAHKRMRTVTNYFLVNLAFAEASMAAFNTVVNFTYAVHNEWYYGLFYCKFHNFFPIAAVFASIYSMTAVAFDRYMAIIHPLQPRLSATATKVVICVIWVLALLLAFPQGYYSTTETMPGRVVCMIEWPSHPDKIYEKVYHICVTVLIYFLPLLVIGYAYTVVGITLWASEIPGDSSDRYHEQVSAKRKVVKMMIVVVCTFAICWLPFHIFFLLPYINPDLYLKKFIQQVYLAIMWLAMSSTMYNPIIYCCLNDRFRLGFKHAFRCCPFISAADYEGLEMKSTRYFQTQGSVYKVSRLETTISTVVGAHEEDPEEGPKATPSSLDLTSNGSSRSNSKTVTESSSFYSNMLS
Experimental Details: Test for NK1 receptor antagonist: substance P concentration-response in isolated guinea pig ileum, Schild analysis
Run Conditions: against substance P, 10 min pretreatment, method of Schild
Recorded Metric: Kb (pM)

Molecule | Recorded Metric | Recorded Result
COc1ccccc1-c1nc(N2CCS(=O)(=O)CC2)nc2c1C(=O)N(Cc1cc(C(F)(F)F)cc(C(F)(F)F)c1)CCCO2 | Kb | 123
O=C1c2c(nc(N3CCC(N4CCCC4)CC3)nc2-c2ccc(F)cc2)OCCCN1Cc1cc(C(F)(F)F)cc(C(F)(F)F)c1 | Kb | 217
CC(=O)NC1CCN(c2nc3c(c(-c4ccccc4C)n2)C(=O)N(Cc2cc(C(F)(F)F)cc(C(F)(F)F)c2)CCCO3)CC1 | Kb | 151
Cc1ccccc1-c1nc(N2CCS(=O)(=O)CC2)nc2c1C(=O)N(Cc1cc(C(F)(F)F)cc(C(F)(F)F)c1)CCCO2 | Kb | 79.4
Cc1ccccc1-c1nc(N2CCC(N(C)C)C2)nc2c1C(=O)N(Cc1cc(C(F)(F)F)cc(C(F)(F)F)c1)CCCO2 (stereo not shown) | Kb | 427
COc1ccccc1-c1nc(N2CCN(C(C)=O)CC2)nc2c1C(=O)N(Cc1cc(C(F)(F)F)cc(C(F)(F)F)c1)CCCO2 | Kb | 100

[I] Cc1ccccc1-c1nc(N2CCN(C)CC2)nc2c1C(=O)N(Cc1cc(C(F)(F)F)cc(C(F)(F)F)c1)CCCO2
[II] CC(=O)N1CCCN(c2nc3c(c(-c4ccccc4C)n2)C(=O)N(Cc2cc(C(F)(F)F)cc(C(F)(F)F)c2)CCCO3)CC1
From the items above, decide which of I and II has the lower Kb reading. Reply briefly: the label of your chosen item.
I

====

Assay System: NK1 receptor (Cavia porcellus)
Construct: from tissue; host or cells: isolated guinea pig ileum
Experimental Details: Test for NK1 receptor antagonist: substance P concentration-response in isolated guinea pig ileum, Schild analysis
Run Conditions: against substance P, 10 min pretreatment, method of Schild
Recorded Metric: Kb (pM)

Molecule | Readout Units | Recorded Result
Cc1ccccc1-c1nc(N2CCN(c3ncccn3)CC2)nc2c1C(=O)N(Cc1cc(C(F)(F)F)cc(C(F)(F)F)c1)CCCO2 | pM | 798

[P] Cc1ccc(-c2c3n(c(=O)c4ncccc24)CC[C@@H](C)CN(Cc2cc(C(F)(F)F)cc(C(F)(F)F)c2)C3=O)cc1 [TAK-637, reference compound]
[Q] Cc1ccccc1-c1nc(-n2ccnc2)nc2c1C(=O)N(Cc1cc(C(F)(F)F)cc(C(F)(F)F)c1)CCCO2
[R] CC(=O)N1CCN(c2nc3c(c(-c4ccccc4C)n2)C(=O)N(Cc2cc(C(F)(F)F)cc(C(F)(F)F)c2)CCCO3)CC1
Task for the reader: rank each entry by its Kb, from the minimum upward. Put the labels in the requested order and write them down.
R, P, Q

The reported numbers originate from patent US6995153B2.
